- SYSTEM: UniProt P08183
- MEASUREMENT_DESCRIPTION: Inhibition of P-gp (unknown origin) in […] MDCK-MDR1 cells assessed as increase in doxorubicin-induced cytotoxicity at 500 nM […] by MTT assay relative to control
- Type: cell-based
- CONDITIONS_USED: probe doxorubicin
MEASUREMENT_LABEL: inhibition at 24 h, 0.5 µM (%)

COMPOUND_STRUCTURE_STRING | MEASUREMENT_LABEL | UNIT_ANNOTATION | ENDPOINT_VALUE
COc1cc(/C=C/C(=O)OCCCCCN(C)C[C@@H](C)COC(=O)c2cc(OC)c(OC)c(OC)c2)cc(OC)c1OC | inhibition at 24 h, 0.5 µM | % | 30

* * *

- SYSTEM: Broad substrate specificity ATP-binding cassette transporter ABCG2 (Homo sapiens, UniProt Q9UNQ0)
- Sequence (Q9UNQ0 whole entry): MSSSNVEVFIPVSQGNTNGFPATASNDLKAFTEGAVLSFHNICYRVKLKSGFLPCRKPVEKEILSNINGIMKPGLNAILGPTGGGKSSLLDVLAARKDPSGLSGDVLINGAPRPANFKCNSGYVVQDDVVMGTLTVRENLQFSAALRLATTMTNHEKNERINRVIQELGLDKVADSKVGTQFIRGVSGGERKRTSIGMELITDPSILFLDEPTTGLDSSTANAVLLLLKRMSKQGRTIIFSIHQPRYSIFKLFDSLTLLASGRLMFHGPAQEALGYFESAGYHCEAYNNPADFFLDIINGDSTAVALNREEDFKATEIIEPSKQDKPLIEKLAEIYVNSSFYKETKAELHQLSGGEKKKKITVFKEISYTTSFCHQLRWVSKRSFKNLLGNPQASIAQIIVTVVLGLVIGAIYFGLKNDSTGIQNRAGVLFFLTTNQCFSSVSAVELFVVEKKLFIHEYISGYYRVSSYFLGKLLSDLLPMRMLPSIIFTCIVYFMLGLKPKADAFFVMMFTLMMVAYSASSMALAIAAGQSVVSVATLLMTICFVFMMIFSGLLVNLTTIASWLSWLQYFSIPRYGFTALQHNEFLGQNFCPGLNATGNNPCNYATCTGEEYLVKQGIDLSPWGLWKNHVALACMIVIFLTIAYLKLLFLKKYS
- MEASUREMENT_DESCRIPTION: Inhibition of BCRP (unknown origin) expressed in MDCK cells assessed as increase in Hoechst 33342 accumulation incubated for 30 mins by Hoechst 33342 dye based fluorescence assay
- Format: cell-based
- CONDITIONS_USED: read-out: EC50
pEC50: −log10 of the molar value.
Collected pEC50 values appear next to each entry.
MEASUREMENT_LABEL: pEC50

COMPOUND_STRUCTURE_STRING | ENDPOINT_VALUE
COc1cc(/C=C/C(=O)OCCCN(C)C[C@@H](C)COC(=O)c2c3ccccc3cc3ccccc23)cc(OC)c1OC | 5.17
COc1cc(/C=C/C(=O)OCCCCCCCN(C)C[C@@H](C)COC(=O)c2c3ccccc3cc3ccccc23)cc(OC)c1OC | 5.21
COc1cc(/C=C/C(=O)OCCCCCN(C)C[C@@H](C)COC(=O)c2cc(OC)c(OC)c(OC)c2)cc(OC)c1OC | 4.39
COc1cc(/C=C/C(=O)OCCCCCN(C)C[C@H](C)COC(=O)c2cc(OC)c(OC)c(OC)c2)cc(OC)c1OC | 5.09
COc1cc(/C=C/C(=O)OCCCCCN(C)C[C@H](C)COC(=O)c2c3ccccc3cc3ccccc23)cc(OC)c1OC | 5.34
COc1cc(/C=C/C(=O)OC[C@@H](C)CN(C)CCCCCOC(=O)c2c3ccccc3cc3ccccc23)cc(OC)c1OC | 5.33
COc1cc(/C=C/C(=O)OCCCCCCCN(C)C[C@@H](C)COC(=O)c2cc(OC)c(OC)c(OC)c2)cc(OC)c1OC | 5.37

* * *

- SYSTEM: ATP-dependent translocase ABCB1 (Homo sapiens, UniProt P08183)
- Sequence (P08183 whole entry): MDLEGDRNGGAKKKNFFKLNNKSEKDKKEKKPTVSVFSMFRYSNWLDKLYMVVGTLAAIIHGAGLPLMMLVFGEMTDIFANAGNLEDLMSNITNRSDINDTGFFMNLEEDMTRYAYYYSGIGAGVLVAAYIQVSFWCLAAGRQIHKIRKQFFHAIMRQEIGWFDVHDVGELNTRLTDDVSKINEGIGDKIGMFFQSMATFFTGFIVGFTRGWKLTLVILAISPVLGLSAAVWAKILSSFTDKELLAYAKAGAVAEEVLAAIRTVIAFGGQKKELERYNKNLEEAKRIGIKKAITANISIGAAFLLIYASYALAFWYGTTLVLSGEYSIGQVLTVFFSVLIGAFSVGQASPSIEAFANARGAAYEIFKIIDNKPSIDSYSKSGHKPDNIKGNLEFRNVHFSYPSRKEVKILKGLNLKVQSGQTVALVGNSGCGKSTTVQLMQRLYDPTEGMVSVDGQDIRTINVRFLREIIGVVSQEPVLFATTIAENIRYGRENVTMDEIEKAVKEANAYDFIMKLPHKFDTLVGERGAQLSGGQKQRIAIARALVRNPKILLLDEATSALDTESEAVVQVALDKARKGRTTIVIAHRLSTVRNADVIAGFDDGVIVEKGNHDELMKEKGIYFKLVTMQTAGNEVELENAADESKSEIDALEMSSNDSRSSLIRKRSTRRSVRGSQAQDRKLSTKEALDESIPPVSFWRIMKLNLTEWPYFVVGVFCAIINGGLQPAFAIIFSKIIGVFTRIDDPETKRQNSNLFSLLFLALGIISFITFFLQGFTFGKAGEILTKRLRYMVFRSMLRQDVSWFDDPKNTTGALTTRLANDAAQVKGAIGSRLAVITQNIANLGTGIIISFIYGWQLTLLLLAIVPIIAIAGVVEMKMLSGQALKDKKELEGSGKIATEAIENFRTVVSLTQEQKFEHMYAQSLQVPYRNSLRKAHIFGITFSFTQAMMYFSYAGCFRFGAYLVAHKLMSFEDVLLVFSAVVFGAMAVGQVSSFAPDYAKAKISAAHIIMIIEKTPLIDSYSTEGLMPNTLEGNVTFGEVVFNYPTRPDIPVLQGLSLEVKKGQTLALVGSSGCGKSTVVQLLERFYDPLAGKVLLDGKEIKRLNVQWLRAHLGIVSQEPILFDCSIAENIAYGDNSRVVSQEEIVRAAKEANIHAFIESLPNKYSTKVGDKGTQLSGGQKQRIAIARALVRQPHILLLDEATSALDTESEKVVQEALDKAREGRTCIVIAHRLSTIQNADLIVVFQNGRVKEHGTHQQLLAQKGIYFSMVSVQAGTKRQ
- MEASUREMENT_DESCRIPTION: Inhibition of P-gp in human K562/DOX cells assessed as drug level causing 50% increase in nuclear pirarubicin concentration incubated for 30 mins by fluorescence based assay
- CONDITIONS_USED: read-out: I0.5
pIC50: −log10 of the molar value.
Collected pIC50 values appear next to each entry.
MEASUREMENT_LABEL: pIC50

COMPOUND_STRUCTURE_STRING | MEASUREMENT_LABEL | ENDPOINT_VALUE
COc1cc(/C=C/C(=O)OC[C@H](C)CN(C)CCCCCOC(=O)c2cc(OC)c(OC)c(OC)c2)cc(OC)c1OC | pIC50 | 6.40
COc1cc(/C=C/C(=O)OCCCCCCCN(C)C[C@@H](C)COC(=O)c2c3ccccc3cc3ccccc23)cc(OC)c1OC | pIC50 | 6.70
COc1cc(/C=C/C(=O)OCCCCCCCN(C)C[C@H](C)COC(=O)c2c3ccccc3cc3ccccc23)cc(OC)c1OC | pIC50 | 7.10
COc1cc(/C=C/C(=O)OC[C@@H](C)CN(C)CCCOC(=O)c2cc(OC)c(OC)c(OC)c2)cc(OC)c1OC | pIC50 | 7.05
COc1cc(/C=C/C(=O)OC[C@H](C)CN(C)CCCCCCCOC(=O)c2c3ccccc3cc3ccccc23)cc(OC)c1OC | pIC50 | 6.01
COc1cc(/C=C/C(=O)OCCCCCN(C)C[C@@H](C)COC(=O)c2cc(OC)c(OC)c(OC)c2)cc(OC)c1OC | pIC50 | 6.46
COc1cc(/C=C/C(=O)OC[C@H](C)CN(C)CCCCCCCOC(=O)c2cc(OC)c(OC)c(OC)c2)cc(OC)c1OC | pIC50 | 6.23
COc1cc(/C=C/C(=O)OCCCCCN(C)C[C@H](C)COC(=O)c2c3ccccc3cc3ccccc23)cc(OC)c1OC | pIC50 | 7.10

* * *

- SYSTEM: Broad substrate specificity ATP-binding cassette transporter ABCG2 (Homo sapiens, UniProt Q9UNQ0)
- MEASUREMENT_DESCRIPTION: Inhibition of BCRP (unknown origin) expressed in MDCK cells assessed as increase in Hoechst 33342 accumulation incubated for 30 mins by Hoechst 33342 dye based fluorescence assay
- Type: cell-based
- CONDITIONS_USED: read-out: EC50

COMPOUND_STRUCTURE_STRING | EC50 [µM]
COc1cc(/C=C/C(=O)OC[C@H](C)CN(C)CCCCCOC(=O)c2c3ccccc3cc3ccccc23)cc(OC)c1OC | 2.3
COc1cc(/C=C/C(=O)OC[C@H](C)CN(C)CCCCCCCOC(=O)c2c3ccccc3cc3ccccc23)cc(OC)c1OC | 6.4
COc1cc(/C=C/C(=O)OCCCN(C)C[C@H](C)COC(=O)c2cc(OC)c(OC)c(OC)c2)cc(OC)c1OC | 6.4
COc1cc(/C=C/C(=O)OCCCN(C)C[C@@H](C)COC(=O)c2cc(OC)c(OC)c(OC)c2)cc(OC)c1OC | 9.5
COc1cc(/C=C/C(=O)OCCCCCCCN(C)C[C@H](C)COC(=O)c2cc(OC)c(OC)c(OC)c2)cc(OC)c1OC | 2.5
COc1cc(/C=C/C(=O)OC[C@H](C)CN(C)CCCOC(=O)c2c3ccccc3cc3ccccc23)cc(OC)c1OC | 5.9
COc1cc(/C=C/C(=O)OC[C@@H](C)CN(C)CCCOC(=O)c2c3ccccc3cc3ccccc23)cc(OC)c1OC | 2.3
COc1cc(/C=C/C(=O)OCCCCCN(C)C[C@@H](C)COC(=O)c2c3ccccc3cc3ccccc23)cc(OC)c1OC | 4.6
COc1cc(/C=C/C(=O)OC[C@@H](C)CN(C)CCCOC(=O)c2cc(OC)c(OC)c(OC)c2)cc(OC)c1OC | 3.7
COc1cc(/C=C/C(=O)OC[C@H](C)CN(C)CCCOC(=O)c2cc(OC)c(OC)c(OC)c2)cc(OC)c1OC | 33.5
COc1cc(/C=C/C(=O)OC[C@@H](C)CN(C)CCCCCCCOC(=O)c2c3ccccc3cc3ccccc23)cc(OC)c1OC | 5.6
COc1cc(/C=C/C(=O)OC[C@H](C)CN(C)CCCCCCCOC(=O)c2cc(OC)c(OC)c(OC)c2)cc(OC)c1OC | 4.7
COc1cc(/C=C/C(=O)OCCCN(C)C[C@H](C)COC(=O)c2c3ccccc3cc3ccccc23)cc(OC)c1OC | 11
COc1cc(/C=C/C(=O)OC[C@@H](C)CN(C)CCCCCOC(=O)c2cc(OC)c(OC)c(OC)c2)cc(OC)c1OC | 4.2
COc1cc(/C=C/C(=O)OCCCCCCCN(C)C[C@H](C)COC(=O)c2c3ccccc3cc3ccccc23)cc(OC)c1OC | 7.2
COc1cc(/C=C/C(=O)OC[C@@H](C)CN(C)CCCCCCCOC(=O)c2cc(OC)c(OC)c(OC)c2)cc(OC)c1OC | 2.3

* * *

- SYSTEM: ATP-dependent translocase ABCB1 (Homo sapiens, UniProt P08183)
- MEASUREMENT_DESCRIPTION: Inhibition of P-gp (unknown origin) expressed in MDCK-MDR1 cells assessed as increase in calcein-AM accumulation incubated for 30 mins by calcein-AM dye based fluorescence assay
pEC50: −log10 of the molar value.
Collected pEC50 values appear next to each entry.

COMPOUND_STRUCTURE_STRING | pEC50
COc1cc(/C=C/C(=O)OC[C@@H](C)CN(C)CCCOC(=O)c2c3ccccc3cc3ccccc23)cc(OC)c1OC | 6.04
COc1cc(/C=C/C(=O)OC[C@@H](C)CN(C)CCCCCCCOC(=O)c2cc(OC)c(OC)c(OC)c2)cc(OC)c1OC | 6.49
COc1cc(/C=C/C(=O)OC[C@H](C)CN(C)CCCCCCCOC(=O)c2cc(OC)c(OC)c(OC)c2)cc(OC)c1OC | 6.09
COc1cc(/C=C/C(=O)OCCCCCN(C)C[C@@H](C)COC(=O)c2c3ccccc3cc3ccccc23)cc(OC)c1OC | 6.09
COc1cc(/C=C/C(=O)OCCCN(C)C[C@H](C)COC(=O)c2c3ccccc3cc3ccccc23)cc(OC)c1OC | 6.04
COc1cc(/C=C/C(=O)OCCCCCCCN(C)C[C@@H](C)COC(=O)c2cc(OC)c(OC)c(OC)c2)cc(OC)c1OC | 6.19
COc1cc(/C=C/C(=O)OCCCN(C)C[C@@H](C)COC(=O)c2c3ccccc3cc3ccccc23)cc(OC)c1OC | 6.02
COc1cc(/C=C/C(=O)OCCCN(C)C[C@H](C)COC(=O)c2cc(OC)c(OC)c(OC)c2)cc(OC)c1OC | 6.26
COc1cc(/C=C/C(=O)OCCCCCCCN(C)C[C@@H](C)COC(=O)c2c3ccccc3cc3ccccc23)cc(OC)c1OC | 6.00
COc1cc(/C=C/C(=O)OC[C@@H](C)CN(C)CCCCCOC(=O)c2c3ccccc3cc3ccccc23)cc(OC)c1OC | 6.16
COc1cc(/C=C/C(=O)OC[C@H](C)CN(C)CCCCCCCOC(=O)c2c3ccccc3cc3ccccc23)cc(OC)c1OC | 5.85
COc1cc(/C=C/C(=O)OC[C@H](C)CN(C)CCCCCOC(=O)c2c3ccccc3cc3ccccc23)cc(OC)c1OC | 6.14
COc1cc(/C=C/C(=O)OC[C@@H](C)CN(C)CCCOC(=O)c2cc(OC)c(OC)c(OC)c2)cc(OC)c1OC | 5.86
COc1cc(/C=C/C(=O)OC[C@@H](C)CN(C)CCCCCOC(=O)c2cc(OC)c(OC)c(OC)c2)cc(OC)c1OC | 5.96
COc1cc(/C=C/C(=O)OCCCN(C)C[C@@H](C)COC(=O)c2cc(OC)c(OC)c(OC)c2)cc(OC)c1OC | 7.14
COc1cc(/C=C/C(=O)OCCCCCN(C)C[C@H](C)COC(=O)c2c3ccccc3cc3ccccc23)cc(OC)c1OC | 6.12
